Molecular target: DYRK1A (Homo sapiens, UniProt Q13627)
Construct: expressed in transfected cells; host or cells: 293T
Test: In vitro kinase assay with separated and purified DYRK1A protein
Format: biochemical
Conditions: predicted from inhibition at 100 nM

| molecule | IC50 |
| --- | --- |
| CC(=O)N1CCC(n2cc(-c3cnc(N)c(-c4nc5cnccc5o4)c3)cn2)CC1 [formula 2] | ~10 nM |

This collection of values is drawn from patent US10765669B2.
